Parameter: % sedimentation. Scope: all listed entries.
protocol notes: Determination of the aggregative character of the peptides by sedimentation
Format: physicochemical
assay conditions: 800 μM peptide; sedimentable peptide after polymerization as percentage of total concentration (16p and 9tp: 288 μM per FIG. 3 legend)

substance: YQVIVK (Ac-YQVIVK-NH2) [17p]
% sedimentation (%): 95
--
substance: QVIKYV (Ac-QVIKYV-NH2) [23p]
% sedimentation (%): 5
--
substance: VKVYIQ (Ac-VKVYIQ-NH2) [11p]
% sedimentation (%): 6
--
substance: VKYQVI (Ac-VKYQVI-NH2) [3p]
% sedimentation (%): 18
--
substance: VQYVIK (Ac-VQYVIK-NH2) [5tp]
% sedimentation (%): 26
--
substance: VKVIYQ (Ac-VKVIYQ-NH2) [7p]
% sedimentation (%): 86
--
substance: IKQVYV (Ac-IKQVYV-NH2) [5p]
% sedimentation (%): 5
--
substance: KYIQVV (Ac-KYIQVV-NH2) [2p]
% sedimentation (%): 67
--
substance: VQVIYK (Ac-VQVIYK-NH2) [12p]
% sedimentation (%): 14
--
substance: QKVYIV (Ac-QKVYIV-NH2) [19p]
% sedimentation (%): 76
--
substance: VVQKYI (Ac-VVQKYI-NH2) [6p]
% sedimentation (%): 14
--
substance: VQVKYI (Ac-VQVKYI-NH2) [21p]
% sedimentation (%): 33
--
substance: KYVIQV (Ac-KYVIQV-NH2) [15p]
% sedimentation (%): 71
--
substance: YIVVQK (Ac-YIVVQK-NH2) [13p]
% sedimentation (%): 0
--
substance: KVQYVI (Ac-KVQYVI-NH2) [14p]
% sedimentation (%): 1
--
substance: KVQIVY (Ac-KVQIVY-NH2) [10p]
% sedimentation (%): 63
--
substance: VVIQYK (Ac-VVIQYK-NH2) [2tp]
% sedimentation (%): 58
--
substance: VVIKYQ (Ac-VVIKYQ-NH2) [3tp]
% sedimentation (%): 48
--
substance: VQVYKI (Ac-VQVYKI-NH2) [22p]
% sedimentation (%): 34
--
substance: VQKIYV (Ac-VQKIYV-NH2) [4p]
% sedimentation (%): 1
--
substance: IQYVVK (Ac-IQYVVK-NH2) [8tp]
% sedimentation (%): 78
--
substance: IYVQKV (Ac-IYVQKV-NH2) [9p]
% sedimentation (%): 1
--
substance: VQIKYV (Ac-VQIKYV-NH2) [0tp]
% sedimentation (%): 0
--
substance: QKYIVV (Ac-QKYIVV-NH2) [8p]
% sedimentation (%): 0
--
substance: KQIVYV (Ac-KQIVYV-NH2) [20p]
% sedimentation (%): 75
--
substance: QKVVYI (Ac-QKVVYI-NH2) [18p]
% sedimentation (%): 51
